Target of assay: Solute carrier family 2, facilitated glucose transporter member 1 (Homo sapiens)
Test description: ST_JUDE_LEISH: Cytotoxicity at 2uM final concentration against transgenic Leishmania Mexicana promastigotes LmGLUT1 that are glucose transport deficient and complemented with the human glucose transporter GLUT1. Activity is measured by DNA content using SYBR green in vitro
Format: functional
# reported inhibition; entries follow
Measurement label: inhibition (%)

>>> observed_measurement("O=C(/C=C/c1cc(C(F)(F)F)ccc1F)N1CCC(CN2CCC(c3c[nH]c4ccccc34)CC2)CC1")
1.52
>>> observed_measurement("CC[C@H]1CN2CC[C@H]1C[C@H]2[C@H](O)c1ccnc2ccc(OC)cc12")
-0.16
>>> observed_measurement("Cc1cc(C(=O)NC2CCN(CC3(c4ccc(Cl)cc4)CCC3)CC2)on1")
0.83
>>> observed_measurement("CN(c1cc(NC(=O)c2cccs2)ccn1)C1CCN(Cc2cccc(C#N)c2)CC1")
8.2

* * *

Target of assay: Glucose transporter (Leishmania mexicana) (UniProt O61059)
Test description: ST_JUDE_LEISH: Cytotoxicity at 2uM final concentration against transgenic Leishmania Mexicana promastigotes LmGT2 that are glucose transport deficient and complemented with the L. Mexicana glucose transporter 2. Activity is measured by DNA content using SYBR green in vitro
Format: functional
# reported inhibition; entries follow
Measurement label: inhibition (%)

>>> observed_measurement("CC[C@H]1CN2CCc3cc(OC)c(OC)cc3[C@@H]2C[C@@H]1C[C@H]1NCCc2c1cc(OC)c(O)c2Cl")
89.3
>>> observed_measurement("CS(=O)(=O)Nc1ccc2[nH]cc(C3CCN(CC4CCC(NC(=O)/C=C/c5ccc(Cl)c(Cl)c5)CC4)CC3)c2c1 (centres undefined)")
-0.55
>>> observed_measurement("CC[C@H]1CN2CC[C@@H]1C[C@H]2[C@H](O)c1cc(N2CCC(c3ccccc3)CC2)nc2ccc(OC)cc12")
2.67
>>> observed_measurement("CC(=O)C1(c2ccccc2)CCN(CCC2(c3ccc(Cl)c(Cl)c3)CN(C(=O)CC(C)C)CCO2)CC1 (centres undefined)")
-2.67
>>> observed_measurement("S=C(NCC1CCCCC1)NC1CCC(CN2CCC(c3c[nH]c4ccccc34)CC2)CC1 (centres undefined)")
0.26
>>> observed_measurement("CS(=O)(=O)Nc1ccc2[nH]cc(C3CCN(CC4CCN(C(=O)/C=C/c5ccc(Cl)c(Cl)c5)CC4)CC3)c2c1")
4.09
>>> observed_measurement("C#CCOc1ccc(CC(C)NCC(O)c2cccc(C(F)(F)F)c2)cc1 (centres undefined)")
0.98
>>> observed_measurement("CCOC(=O)c1c(C)n(C2CCCCCC2)c2cc(Br)c(O)cc12")
4.54
>>> observed_measurement("Oc1ccc(CN2CCN(CCOC(c3ccccc3)c3ccccc3)CC2)cc1Cl")
-1.69

* * *

Target of assay: Solute carrier family 2, facilitated glucose transporter member 1 (Homo sapiens) (UniProt P11166)
Sequence (P11166 whole entry): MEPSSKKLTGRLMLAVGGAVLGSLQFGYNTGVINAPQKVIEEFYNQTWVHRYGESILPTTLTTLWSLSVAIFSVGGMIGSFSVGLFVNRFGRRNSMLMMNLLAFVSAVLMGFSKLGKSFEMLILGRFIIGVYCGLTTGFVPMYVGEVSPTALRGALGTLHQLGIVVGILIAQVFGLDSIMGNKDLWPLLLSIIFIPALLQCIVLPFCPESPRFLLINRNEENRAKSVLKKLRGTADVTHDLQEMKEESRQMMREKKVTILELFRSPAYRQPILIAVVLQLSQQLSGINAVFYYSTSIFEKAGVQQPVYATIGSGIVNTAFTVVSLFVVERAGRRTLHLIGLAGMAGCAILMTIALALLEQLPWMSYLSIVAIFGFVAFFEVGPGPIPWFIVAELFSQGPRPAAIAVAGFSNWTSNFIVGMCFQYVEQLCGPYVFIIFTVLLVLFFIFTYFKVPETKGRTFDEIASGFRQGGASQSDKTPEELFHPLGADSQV
Test description: ST_JUDE_LEISH: Cytotoxicity at 2uM final concentration against transgenic Leishmania Mexicana promastigotes LmGLUT1 that are glucose transport deficient and complemented with the human glucose transporter GLUT1. Activity is measured by DNA content using SYBR green in vitro
Assay type: functional
Measurement label: inhibition (%)

>>> observed_measurement("CC[C@H]1CN2CC[C@H]1C[C@H]2[C@H](O)c1cc(-c2cccc(C)c2)nc2ccc(OC)cc12")
3.99
>>> observed_measurement("CC[C@H]1CN2CC[C@H]1C[C@H]2[C@H](O)c1cc(-c2ccc3ccccc3c2)nc2ccc(OC)cc12")
10
>>> observed_measurement("Cc1cc2cc(CNCCc3ccccc3Br)ccc2nc1N")
9.09
>>> observed_measurement("C=C[C@H]1CN2CC[C@H]1C[C@H]2[C@H](OS(=O)(=O)O)c1ccnc2ccccc12")
9.31
>>> observed_measurement("COC(=O)c1ccc(CC(C)NCC(O)c2cccc(C(F)(F)F)c2)c(OC)c1 (stereo not drawn)")
6.43
>>> observed_measurement("CC[C@H]1CN2CC[C@H]1C[C@H]2[C@H](O)c1cc(-c2ccc(C)cc2)nc2ccc(OC)cc12")
1.44
>>> observed_measurement("CC(Cc1ccc(C2=CCNCC2)cc1)NCC(O)c1cccc(C(F)(F)F)c1 (stereo not drawn)")
-2.15
>>> observed_measurement("CCCCC/C=C/C(=O)NC1CCC(CN2CCC(c3c[nH]c4ccccc34)CC2)CC1 (stereo not drawn)")
2.84

* * *

Target of assay: Glucose transporter (Leishmania mexicana) (UniProt O61059)
Test description: ST_JUDE_LEISH: Cytotoxicity at 2uM final concentration against transgenic Leishmania Mexicana promastigotes LmGT2 that are glucose transport deficient and complemented with the L. Mexicana glucose transporter 2. Activity is measured by DNA content using SYBR green in vitro
Type: functional
# reported inhibition; entries follow
Measurement label: inhibition (%)

>>> observed_measurement("CN1C(=O)[C@H](NC(=O)[C@@H](Cc2ccccc2)NC(=S)Nc2ccccc2)N=C(c2ccccc2)c2ccccc21")
1.74
>>> observed_measurement("COc1ccc(NC(=S)NC(NC(=O)CF)C(Cl)(Cl)Cl)cc1[N+](=O)[O-] (stereo unspecified)")
-1.65
>>> observed_measurement("CCCCCCC(C)(C)c1cc(O)c2c3c(c(=O)oc2c1)CCN(Cc1ccccc1)C3")
8.58
>>> observed_measurement("CN(C)c1cccc(NC(=O)N[C@H]2N=C(c3ccccc3)c3ccccc3N(CC(=O)N3CCCC3)C2=O)c1")
2.53
>>> observed_measurement("O=C(c1cc(C(=O)NCc2ccc(Cl)cc2)c(=O)n(Cc2ccc(Cl)cc2)c1)c1cc(F)ccc1O")
1.19
>>> observed_measurement("Cc1cc(C)c(CC(C)NCC(O)c2cccc(C(F)(F)F)c2)c(C)c1 (stereo unspecified)")
-1.18
